Values from patent US10590113B2

# maps each entry to its EC50
- target or test system: human APJ receptor (Homo sapiens, UniProt P35414)
- Construct: expressed in transfected cells; host or cells: HEK293
- Sequence (P35414 1-380): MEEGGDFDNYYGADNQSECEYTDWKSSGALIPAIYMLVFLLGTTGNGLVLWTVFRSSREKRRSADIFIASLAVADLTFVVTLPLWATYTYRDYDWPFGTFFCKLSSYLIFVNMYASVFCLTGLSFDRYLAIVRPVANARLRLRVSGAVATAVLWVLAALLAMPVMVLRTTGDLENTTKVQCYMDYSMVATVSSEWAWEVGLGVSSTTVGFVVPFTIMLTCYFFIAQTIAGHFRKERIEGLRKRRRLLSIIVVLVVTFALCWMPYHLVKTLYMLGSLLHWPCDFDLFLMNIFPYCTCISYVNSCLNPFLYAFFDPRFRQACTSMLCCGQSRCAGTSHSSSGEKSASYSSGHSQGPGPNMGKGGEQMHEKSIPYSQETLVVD
- assay comment: Intracellular cAMP Accumulation Assay (APJ hcAMP, HTRF)
- Assay type: cell-based
- experimental setup: human APJ, intracellular cAMP accumulation; read-out: hAPJ cAMP EC50 Potency range
reported metric: EC50

molecule: COc1cccc(OC)c1-n1c(COC2CC2)nc(=O)c(C(=O)N2CCC(c3ccc(F)cc3)C2)c1O (single isomer, unassigned) [Example 100]
result: 0.01 to 10 nM
//
molecule: CCCCc1nc(=O)c(C(=O)N2CC[C@H](c3ccccc3)C2)c(O)n1[C@H](CC)c1ccccc1
result: 0.01 to 10 nM
//
molecule: CC[C@@H](c1cc(F)cc(F)c1)n1c(-c2ccn(CC)n2)nc(=O)c(C(=O)N2CCC(c3ncc(F)cc3F)C2)c1O (single isomer, unassigned) [Example 192]
result: 0.01 to 10 nM
//
molecule: CCCCc1nc(=O)c(C(=O)N2CC[C@H](c3ccccc3)C2)c(O)n1C(c1ccccc1)C(C)C (stereo partly shown)
result: 10 to 100 nM
//
molecule: CC[C@@H](c1cc(F)cc(F)c1)n1c(-c2ccn(C)n2)nc(=O)c(C(=O)N2CCC(c3ccccc3OC)C2)c1O (single isomer, unassigned)
result: 0.01 to 10 nM
//
molecule: COc1cccc(OC)c1-n1c(CCC2CC2)nc(=O)c(C(=O)N2CCC(c3ncccc3F)C2)c1O (single isomer, unassigned) [Example 179]
result: 0.01 to 10 nM
//
molecule: CCCCc1nc(=O)c(C(=O)N2Cc3cccnc3C2)c(O)n1-c1c(OC)cccc1OC
result: 10 to 100 nM
//
molecule: COc1cccc(OC)c1-n1c(COC(C)C)nc(=O)c(C(=O)N2CCC(c3ccccc3C#N)C2)c1O (single isomer, unassigned) [Example 167]
result: 0.01 to 10 nM
//
molecule: COc1cccc(OC)c1-n1c(COC(C)C)nc(=O)c(C(=O)N2CCC(c3ccccc3C)C2)c1O (single isomer, unassigned) [Example 105]
result: 0.01 to 10 nM
//
molecule: CCCCc1nc(=O)c(C(=O)N2CCC(c3ccccc3F)C2)c(O)n1-c1c(OC)cccc1OC (single isomer, unassigned) [Example 52]
result: 0.01 to 10 nM
//
molecule: COc1cccc(OC)c1-n1c(COC2CC2)nc(=O)c(C(=O)N2CCC(c3ccccc3F)C2)c1O (single isomer, unassigned) [Example 10]
result: 0.01 to 10 nM
//
molecule: COc1cccc(OC)c1-n1c(CCC2CC2)nc(=O)c(C(=O)N2CCC(c3ccc(F)cn3)C2)c1O (single isomer, unassigned) [Example 177]
result: 0.01 to 10 nM
//
molecule: CCOCc1nc(=O)c(C(=O)N2CCC(c3cccnc3)C2)c(O)n1-c1c(OC)cccc1OC (single isomer, unassigned) [Example 85]
result: 0.01 to 10 nM
